Data provenance is patent US20250223300A1.

biological target: Ba/F3 (EGFR Del19/C797S) (Homo sapiens, UniProt P00533, C797S, cells depend on it, form not given); assay: Cell proliferation inhibitory activity assay, Ba/F3 EGFR Del19/C797S; format: cell-based; conditions: cell proliferation inhibition, 72 hours, luminescence; read-out: Ba/F3 cells overexpressing different EGFR mutations IC50 (nM) Del19/C797S
Sequence (P00533 with tags, fused parts or gaps DEL746-750/C797S, form open): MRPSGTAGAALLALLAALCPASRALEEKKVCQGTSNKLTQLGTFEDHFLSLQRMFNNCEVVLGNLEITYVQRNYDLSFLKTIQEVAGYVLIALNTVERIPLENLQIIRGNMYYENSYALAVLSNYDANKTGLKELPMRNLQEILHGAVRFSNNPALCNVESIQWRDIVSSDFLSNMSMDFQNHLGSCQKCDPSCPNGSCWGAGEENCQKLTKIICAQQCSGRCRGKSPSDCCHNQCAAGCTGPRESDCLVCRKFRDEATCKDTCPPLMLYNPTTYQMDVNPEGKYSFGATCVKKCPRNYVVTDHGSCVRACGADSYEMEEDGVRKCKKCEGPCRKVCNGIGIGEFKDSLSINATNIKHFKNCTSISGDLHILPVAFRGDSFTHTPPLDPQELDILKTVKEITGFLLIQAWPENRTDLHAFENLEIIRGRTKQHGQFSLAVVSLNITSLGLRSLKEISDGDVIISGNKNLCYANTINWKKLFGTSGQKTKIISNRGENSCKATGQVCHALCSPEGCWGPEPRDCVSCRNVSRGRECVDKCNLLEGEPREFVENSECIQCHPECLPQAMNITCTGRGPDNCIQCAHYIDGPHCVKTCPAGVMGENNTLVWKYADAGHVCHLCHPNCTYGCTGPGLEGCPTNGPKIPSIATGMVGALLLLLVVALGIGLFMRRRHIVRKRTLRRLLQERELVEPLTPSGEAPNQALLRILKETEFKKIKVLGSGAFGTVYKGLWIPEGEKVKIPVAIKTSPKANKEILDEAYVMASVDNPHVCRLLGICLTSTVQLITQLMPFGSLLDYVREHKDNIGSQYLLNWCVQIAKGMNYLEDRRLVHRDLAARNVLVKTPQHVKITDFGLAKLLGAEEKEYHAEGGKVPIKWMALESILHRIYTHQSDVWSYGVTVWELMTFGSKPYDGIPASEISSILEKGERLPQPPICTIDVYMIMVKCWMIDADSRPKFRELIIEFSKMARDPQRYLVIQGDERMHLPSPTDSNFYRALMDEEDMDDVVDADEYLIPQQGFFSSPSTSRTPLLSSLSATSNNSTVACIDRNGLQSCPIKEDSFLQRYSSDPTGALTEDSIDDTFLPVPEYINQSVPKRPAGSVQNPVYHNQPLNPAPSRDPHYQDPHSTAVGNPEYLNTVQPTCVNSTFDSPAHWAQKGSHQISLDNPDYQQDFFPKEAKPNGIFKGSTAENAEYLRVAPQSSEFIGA
readout name: GI50 (nM)
Give the quantity in nM, number only.

Below, each entry is followed by its recorded GI50 result.
INSERT INTO results (compound_smiles, quantitative_readout) VALUES
  ('Cc1cc2cc(n1)-c1cnccc1OCCC[C@@H](C)Cn1c(nc3cc(C)c(N4CCC5(CC4)CCN(C4COC4)CC5)cc31)NC2=O', 0.48),
  ('Cc1cc2cc(n1)-c1cnccc1OCCCCCn1c(nc3cc(F)c(N4CCC5(CCN(CCF)CC5)CC4)cc31)NC2=O', 0.29),
  ('Cc1cc2cc(n1)-c1cnccc1OCCC[C@@H](C)Cn1c(nc3ccc(N4CCC5(CCN(C)CC5)CC4)cc31)NC2=O', 0.07),
  ('Cc1cc2cc(n1)-c1cnccc1OCCC[C@@H](C)Cn1c(nc3ccc(N4CCC5(CC4)CCN(C4CC4)CC5)cc31)NC2=O', 0.27),
  ('Cc1cc2cc(n1)-c1cnc(F)cc1OCCC[C@@H](C)Cn1c(nc3ccc(N4CCC5(CC4)CCN(C4COC4)CC5)cc31)NC2=O', 0.1),
  ('Cc1cc2cc(n1)-c1cnccc1OCCCCCn1c(nc3ccc(N4CCC5(CC4)CCN(C4COC4)CC5)cc31)NC2=O', 0.5);

Consider the additional compound presented here.
Prompt: Query (compound): Cc1cc2cc(n1)-c1cnccc1OCCCCCn1c(nc3cc(F)c(N4CCC5(CC4)CCN(C4CC4)CC5)cc31)NC2=O ; field requested: GI50
Completion: 0.69

----------
Measured microsomal CLint, listed per entry for reference.
experiment: Metabolic stability of liver microsomes, human; type: in vitro ADME; settings: NADPH, 0-45 min, read-out: CLint(μL/min/mg protein) Human
Give the quantity in µL/min/mg, number only.

INSERT INTO results (molecule, unit, quantitative_readout) VALUES
  ('Cc1cc2cc(n1)-c1cnccc1OCCCCCn1c(nc3ccc(N4CCC5(CCN(C)CC5)CC4)cc31)NC2=O [Example 1]', 'µL/min/mg', 7.2),
  ('Cc1cc2cc(n1)-c1cnccc1OCCC[C@@H](C)Cn1c(nc3cc(C)c(N4CCC5(CC4)CCN(C4COC4)CC5)cc31)NC2=O [Example 12]', 'µL/min/mg', 24.9),
  ('Cc1cc2cc(n1)-c1cnccc1OCCCCCn1c(nc3cc(C)c(N4CCC5(CCN(CCF)CC5)CC4)cc31)NC2=O [Example 59]', 'µL/min/mg', 4.82),
  ('COCCCN1CCC2(CC1)CCN(c1ccc3nc4n(c3c1)C[C@H](C)CCCOc1ccncc1-c1cc(cc(C)n1)C(=O)N4)CC2 [Example 77]', 'µL/min/mg', 17),
  ('Cc1cc2cc(n1)-c1cnccc1OCCCCCn1c(nc3ccc(N4CCC5(CCN(CC(C)(C)F)CC5)CC4)cc31)NC2=O [Example 78]', 'µL/min/mg', 4.3),
  ('Cc1cc2cc(n1)-c1cnccc1OCCC[C@@H](C)Cn1c(nc3ccc(N4CCC5(CCN(C)CC5)CC4)cc31)NC2=O [Example 3]', 'µL/min/mg', 6.6);

Consider the additional molecule presented here.
Prompt: Query (molecule): Cc1cc2cc(n1)-c1cnccc1OCCC[C@@H](C)Cn1c(nc3cc(F)c(N4CCC5(CCN(C)CC5)CC4)cc31)NC2=O [Example 5] ; field requested: microsomal CLint
Completion: 9.1
